molecular target: T1, histidine-tagged human Siglec-7 (NovoProtein) (human, UniProt Q9Y286 19-353); test: BLI, antibody captured
T1 construct: Bought protein; also called recombinant human Siglec-7; recombinant Siglec-7; not shown: histidine tag
T1 sequence (Q9Y286 19-353 limits assumed): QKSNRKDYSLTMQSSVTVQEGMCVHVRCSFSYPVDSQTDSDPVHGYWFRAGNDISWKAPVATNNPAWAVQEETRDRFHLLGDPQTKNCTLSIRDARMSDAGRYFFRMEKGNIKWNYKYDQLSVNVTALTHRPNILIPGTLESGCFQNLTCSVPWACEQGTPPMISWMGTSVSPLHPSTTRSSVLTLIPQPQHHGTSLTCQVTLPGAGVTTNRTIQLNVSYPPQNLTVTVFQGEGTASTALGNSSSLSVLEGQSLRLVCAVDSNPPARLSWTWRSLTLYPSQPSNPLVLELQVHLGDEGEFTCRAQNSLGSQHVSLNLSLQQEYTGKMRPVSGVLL
measure.name: koff (s⁻¹)
Answer format: numeric, s⁻¹ implied, no suffix.

// worked examples, koff included
{"columns": ["binder", "koff, s⁻¹"],
 "data": [
  ["S7AB-H8.39 (antibody, V domains shown) VH: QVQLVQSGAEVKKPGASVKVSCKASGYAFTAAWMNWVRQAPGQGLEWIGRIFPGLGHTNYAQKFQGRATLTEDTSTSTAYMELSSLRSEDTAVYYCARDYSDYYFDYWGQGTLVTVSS VL: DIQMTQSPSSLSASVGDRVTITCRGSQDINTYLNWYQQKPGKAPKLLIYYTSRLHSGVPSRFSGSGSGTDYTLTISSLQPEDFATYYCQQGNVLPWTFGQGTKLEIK", "3.56e-05"],
  ["S7AB-H8.35 (antibody, V domains shown) VH: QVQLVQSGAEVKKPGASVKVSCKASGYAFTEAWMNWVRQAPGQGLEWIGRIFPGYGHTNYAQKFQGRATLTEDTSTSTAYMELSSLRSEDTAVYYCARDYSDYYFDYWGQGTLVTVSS VL: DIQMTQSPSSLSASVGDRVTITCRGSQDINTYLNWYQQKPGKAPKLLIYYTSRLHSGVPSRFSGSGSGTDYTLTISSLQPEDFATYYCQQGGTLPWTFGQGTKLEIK", "6.57e-05"]
]}

Continue with the next binder.
Please list koff recorded for the binder S7AB-H8.12 (antibody, V domains shown) VH: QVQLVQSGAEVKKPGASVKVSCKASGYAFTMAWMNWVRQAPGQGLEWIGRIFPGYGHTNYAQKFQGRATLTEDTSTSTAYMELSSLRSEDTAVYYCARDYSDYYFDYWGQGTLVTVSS VL: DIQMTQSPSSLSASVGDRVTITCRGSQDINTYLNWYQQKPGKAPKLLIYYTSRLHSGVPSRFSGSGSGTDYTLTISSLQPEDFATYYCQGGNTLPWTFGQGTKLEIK
0.000155
